The values you see were collected from patent US10376480B2.

// values below are reported melting point

>  <compound>
CCN(CC)C(=N)NC(=N)N(C)C1CCCCC1.Cl [Example 36]

>  <melting point>
115 to 117 °C

$$$$
>  <compound>
Cl.N=C(NC(=N)Nc1cccc(Cl)c1)Nc1cccc(Cl)c1 [Example 6]

>  <melting point>
129 to 131 °C

$$$$
>  <compound>
Cl.N=C(NCCc1ccccc1)NC(=N)NCCc1ccccc1 [Example 16]

>  <melting point>
204 to 205 °C

$$$$
>  <compound>
CN(C)C(=N)NC(=N)NC(C)(C)C.Cl [Example 20]

>  <melting point>
186 to 187 °C

$$$$
>  <compound>
CCN(CC)C(=N)NC(=N)N(CC)CC.Cl [Example 35]

>  <melting point>
140 to 141 °C

$$$$
>  <compound>
CN(C)C(=N)NC(=N)NCc1ccco1.Cl [Example 26]

>  <melting point>
176 to 177 °C

$$$$
>  <compound>
CCCN(CCC)C(=N)NC(=N)Nc1cccc2cnccc12.Cl [Example 33]

>  <melting point>
191 to 192 °C

$$$$
>  <compound>
CNC(=N)NC(=N)N(C)C.Cl [Example 17]

>  <melting point>
175 to 177 °C

$$$$
>  <compound>
Cl.N=C(NCCc1ccccc1)NC(=N)NCC1CC1 [Example 14]

>  <melting point>
143 to 146 °C

$$$$
>  <compound>
CCCN(CCC)C(=N)NC(=N)N(C)CCc1ccccc1.Cl [Example 38]

>  <melting point>
110 to 111 °C

$$$$
>  <compound>
CCCNC(=N)NC(=N)NCCc1ccccc1.Cl [Example 13]

>  <melting point>
126 to 128 °C

$$$$
>  <compound>
CN(C)C(=N)NC(=N)NCCc1ccccc1.Cl [Example 29]

>  <melting point>
155 to 157 °C

$$$$
>  <compound>
CCCCCNC(=N)NC(=N)N(C)C.Cl [Example 21]

>  <melting point>
131 to 133 °C

$$$$
>  <compound>
CCCN(CCC)C(=N)NC(=N)Nc1cccc(Cl)c1.Cl [Example 31]

>  <melting point>
201 to 202 °C

$$$$
>  <compound>
COC(=O)CCNC(=N)NC(=N)N(C)C.Cl [Example 22]

>  <melting point>
100 to 102 °C

$$$$
>  <compound>
CCC(C)NC(=N)NC(=N)N(C)C.Cl (stereo not shown) [Example 19]

>  <melting point>
110 to 112 °C

$$$$
>  <compound>
Cl.N=C(NCCc1ccccc1)NC(=N)NC1CCCCCC1 [Example 15]

>  <melting point>
135 to 137 °C

$$$$
>  <compound>
Cl.N=C(NC(=N)Nc1ccc(Br)cc1)Nc1ccc(Br)cc1 [Example 11]

>  <melting point>
242 to 243 °C

$$$$
>  <compound>
CN(C)C(=N)NC(=N)Nc1ccc(Br)cc1.Cl [Example 25]

>  <melting point>
272 to 273 °C

$$$$
>  <compound>
CCCN(CC)C(=N)NC(=N)Nc1ccc(Cl)cc1.Cl [Example 32]

>  <melting point>
110 to 112 °C

$$$$
>  <compound>
Cl.N=C(NC(=N)Nc1ccc(Cl)cc1)Nc1ccc(Cl)cc1 [Example 5]

>  <melting point>
263 to 264 °C

$$$$
>  <compound>
CCCCNC(=N)NC(=N)N(C)C.Cl [Example 18]

>  <melting point>
131 to 133 °C

$$$$

###

>  <test_smiles>
CCCN(CCC)C(=N)NC(=N)N(c1ccccc1)c1ccc(O)cc1.Cl

>  <melting point>
189 to 190 °C

$$$$
>  <test_smiles>
CN(C)C(=N)NC(=N)NCC1CC1.Cl

>  <melting point>
117 to 118 °C

$$$$
>  <test_smiles>
COc1ccc(NC(=N)NC(=N)Nc2ccc(OC)c(Cl)c2)cc1Cl.Cl

>  <melting point>
203 to 204 °C

$$$$
>  <test_smiles>
Cl.N=C(NC(=N)Nc1cc(Cl)cc(Cl)c1)Nc1cc(Cl)cc(Cl)c1

>  <melting point>
250 to 251 °C

$$$$
>  <test_smiles>
CN(Cc1ccccc1)C(=N)NC(=N)N(C)Cc1ccccc1.Cl

>  <melting point>
141 to 142 °C

$$$$

###

// values below are reported IC50
Test system: HCT116 cells
assay_remarks: Inhibition of cancer cell proliferation (MTT, GIC50)
Assay type: cell-based
protocol_conditions: Homo sapiens, HCT-116, 48 hours incubation
Structures can show the parent of a compound that is named as a salt.
endpoint_name: IC50

>  <compound>
CCCN(CCC)C(=N)NC(=N)Nc1cccc2cnccc12.Cl [Example 33, Hydrochloride]

>  <observed_result>
> 100 µM

$$$$
>  <compound>
Cl.N=C(NCCc1ccccc1)NC(=N)NC1CCCCCC1 [Example 15, Hydrochloride]

>  <observed_result>
17.2 µM

$$$$
>  <compound>
CN(C)C(=N)N=C(N)N [Metformin HCl, reference compound]

>  <observed_result>
2170 µM

$$$$
>  <compound>
Cl.N=C(NC(=N)Nc1ccc(Cl)cc1)Nc1ccc(Cl)cc1 [Example 5, Hydrochloride]

>  <observed_result>
3.2 µM

$$$$
>  <compound>
CN(Cc1ccccc1)C(=N)NC(=N)N(C)Cc1ccccc1.Cl [Example 40, Hydrochloride]

>  <observed_result>
> 100 µM

$$$$
>  <compound>
CCCCCCNC(=N)NC(=N)NCC1CCCCC1.Cl [Example 3, Hydrochloride]

>  <observed_result>
> 100 µM

$$$$
>  <compound>
COC(=O)CCNC(=N)NC(=N)N(C)C.Cl [Example 22, Hydrochloride]

>  <observed_result>
> 200 µM

$$$$
>  <compound>
CCCN(CC)C(=N)NC(=N)Nc1ccc(Cl)cc1.Cl [Example 32, Hydrochloride]

>  <observed_result>
> 200 µM

$$$$
>  <compound>
CCCNC(=N)NC(=N)NCCc1ccccc1.Cl [Example 13, Hydrochloride]

>  <observed_result>
47.6 µM

$$$$
>  <compound>
CN(C)C(=N)NC(=N)NCc1cccnc1.Cl [Example 27, Hydrochloride]

>  <observed_result>
> 200 µM

$$$$
>  <compound>
Cl.N=C(NC(=N)Nc1ccc(Cl)c(Cl)c1)Nc1ccc(Cl)c(Cl)c1 [Example 9, Hydrochloride]

>  <observed_result>
5.9 µM

$$$$
>  <compound>
CCN(CC)C(=N)NC(=N)N(CC)CC.Cl [Example 35, Hydrochloride]

>  <observed_result>
> 200 µM

$$$$
>  <compound>
Cl.N=C(NCCc1ccccc1)NC(=N)NCCc1ccccc1 [Example 16, Hydrochloride]

>  <observed_result>
> 100 µM

$$$$
>  <compound>
CCCN(CCC)C(=N)NC(=N)N(CC)CC.Cl [Example 37, Hydrochloride]

>  <observed_result>
> 100 µM

$$$$
>  <compound>
CN(C)C(=N)NC(=N)NC(C)(C)C.Cl [Example 20, Hydrochloride]

>  <observed_result>
> 200 µM

$$$$
>  <compound>
CCCCCCNC(=N)NC(=N)NCCC.Cl [Example 1, Hydrochloride]

>  <observed_result>
23.8 µM

$$$$
>  <compound>
Cl.N=C(NC(=N)Nc1ccc(Br)cc1)Nc1ccc(Br)cc1 [Example 11, Hydrochloride]

>  <observed_result>
3.1 µM

$$$$
>  <compound>
Cl.N=C(NC(=N)Nc1cc(Cl)cc(Cl)c1)Nc1cc(Cl)cc(Cl)c1 [Example 10, Hydrochloride]

>  <observed_result>
6.3 µM

$$$$
>  <compound>
CCCN(CCC)C(=N)NC(=N)N(C)CCc1ccccc1.Cl [Example 38, Hydrochloride]

>  <observed_result>
36 µM

$$$$
>  <compound>
CNC(=N)NC(=N)N(C)C.Cl [Example 17, Hydrochloride]

>  <observed_result>
> 200 µM

$$$$
>  <compound>
Cl.N=C(NC(=N)Nc1cccc(Cl)c1)Nc1cccc(Cl)c1 [Example 6, Hydrochloride]

>  <observed_result>
> 100 µM

$$$$
>  <compound>
CCN(CC)C(=N)NC(=N)N(C)C1CCCCC1.Cl [Example 36, Hydrochloride]

>  <observed_result>
> 200 µM

$$$$
>  <compound>
CN(C)C(=N)NC(=N)NCC1CC1.Cl [Example 24, Hydrochloride]

>  <observed_result>
> 200 µM

$$$$
>  <compound>
COc1ccc(NC(=N)NC(=N)Nc2ccc(Cl)cc2)cc1 [Example 7, Hydrochloride]

>  <observed_result>
18.3 µM

$$$$
>  <compound>
CCCCCCNC(=N)NC(=N)NCc1ccccc1.Cl [Example 4, Hydrochloride]

>  <observed_result>
8.4 µM

$$$$
>  <compound>
CN(C)C(=N)NC(=N)NCc1ccco1.Cl [Example 26, Hydrochloride]

>  <observed_result>
> 200 µM

$$$$
>  <compound>
Cl.N=C(NCc1ccccc1)NC(=N)NCc1cccnc1 [Example 12, Hydrochloride]

>  <observed_result>
> 200 µM

$$$$
>  <compound>
CCCCCCN(CCCCCC)C(=N)NC(=N)Nc1cccc(Cl)c1 [Example 34, Hydrochloride]

>  <observed_result>
7.8 µM

$$$$
>  <compound>
CN(C)C(=N)NC(=N)NCc1ccccc1.Cl [Example 28, Hydrochloride]

>  <observed_result>
> 200 µM

$$$$
>  <compound>
Cl.N=C(NCCc1ccccc1)NC(=N)NCC1CC1 [Example 14, Hydrochloride]

>  <observed_result>
47 µM

$$$$
>  <compound>
CCCCNC(=N)NC(=N)N(C)C.Cl [Example 18, Hydrochloride]

>  <observed_result>
> 200 µM

$$$$
